Values were extracted from paper PMC7692551.

# Test system: TanRd
# Construct: recombinant secreted from Yarrowia lipolytica, codon-optimised, XPR2 signal peptide, His-tag; ORF 1719 bp, 572 aa, predicted native signal peptide 1-19
# testDetails: gallate ester hydrolysis, gallic acid release
# Assay type: biochemical, Rhodotorula diobovata
# testParameters: kinetic assay conditions not stated
measuredEndpoint: Km (µM)

O=C(O[C@@H]1Cc2c(O)cc(O)cc2O[C@@H]1c1ccc(O)c(O)c1)c1cc(O)c(O)c(O)c1 [ECG, epicatechin gallate] = 1650
CCCOC(=O)c1cc(O)c(O)c(O)c1 [PG, propyl gallate] = 1490
COC(=O)c1cc(O)c(O)c(O)c1 [MG, methyl gallate] = 2310
O=C(O[C@H]1Cc2c(O)cc(O)cc2O[C@@H]1c1ccc(O)c(O)c1)c1cc(O)c(O)c(O)c1 [CG, catechin gallate] = 1670
O=C(O[C@@H]1Cc2c(O)cc(O)cc2O[C@@H]1c1cc(O)c(O)c(O)c1)c1cc(O)c(O)c(O)c1 [EGCG, epigallocatechin gallate] = 2190
